assay target: CDK2/Cyclin E complex (Homo sapiens, UniProt P24941)
assay protocol: In vitro kinase assay, CDK2/Cyclin E complex
stated conditions: recombinant protein (Upstate); read-out: CDK2/cyclinE IC50
Method: Inhibitory activity against Aurora A, CDK1/Cyclin B complex, CDK2/Cyclin E complex and CDK3/Cyclin E complex were measured by in vitro kinase assay using recombinant proteins.
pIC50: −log10 of the molar value.
measured quantity: pIC50

compound | recorded result
CC(=O)Nc1cc(NC(C)(C)C(=O)Nc2nc3c(C(F)(F)F)cc4[nH]ncc4c3s2)ccc1F | 7.03
CC(C)(Nc1cccc(C(=O)NCCC(N)=O)c1)C(=O)Nc1nc2c(C(F)(F)F)cc3[nH]ncc3c2s1 | 7.52
CC(Nc1ccc(Cl)cc1)C(=O)Nc1nc2ccc3[nH]ncc3c2s1 (stereo not shown) | 7.30
CC(C)(Nc1ccc2[nH]c(=O)[nH]c2c1)C(=O)Nc1nc2c(C(F)(F)F)cc3[nH]ncc3c2s1 | 6.46
CC(C)(Nc1ccc(F)c(C(N)=O)c1)C(=O)Nc1nc2c(C(F)(F)F)cc3[nH]ncc3c2s1 | 7.43
CC(C)(Nc1cccc(C(=O)NCCCC(=O)O)c1)C(=O)Nc1nc2c(C(F)(F)F)cc3[nH]ncc3c2s1 | 6.37
O=C(CNc1cccc(F)c1)Nc1nc2ccc3[nH]ncc3c2s1 | 6.70
CC(C)(Nc1ccc(Cl)c(O)c1)C(=O)Nc1nc2c(C(F)(F)F)cc3[nH]ncc3c2s1 | 7.64
O=C(CNc1ccccc1)Nc1nc2ccc3[nH]ncc3c2s1 | 6.39
CC(C)OC(=O)c1cc(NC(C)(C)C(=O)Nc2nc3ccc4[nH]ncc4c3s2)ccc1Cl | 6.59
CC(C)OC(=O)c1cc(NC2(C(=O)Nc3nc4ccc5[nH]ncc5c4s3)CC2)ccc1Cl | 6.85
O=C(CNc1ccc(Cl)cc1)Nc1nc2ccc3[nH]ncc3c2s1 | 7.40
CC(C)(Nc1cccc(F)c1)C(=O)Nc1nc2ccc3[nH]ncc3c2s1 | 6.36
CC(C)(Nc1ccc(Cl)c(NS(C)(=O)=O)c1)C(=O)Nc1nc2c(C(F)(F)F)cc3[nH]ncc3c2s1 | 7.36
CC(C)(Nc1ccc(Cl)cc1C(=O)NCC(N)=O)C(=O)Nc1nc2c(C(F)(F)F)cc3[nH]ncc3c2s1 | 6.35
CC(C)(Nc1ccc(Cl)cc1)C(=O)Nc1nc2ccc3[nH]ncc3c2s1 | 7.35
CON(C)C(=O)c1cc(Cl)ccc1NC(C)(C)C(=O)Nc1nc2c(C(F)(F)F)cc3[nH]ncc3c2s1 | 6.41
CC(C)(Nc1ccc(Cl)nc1)C(=O)Nc1nc2c(C(F)(F)F)cc3[nH]ncc3c2s1 | 6.46
COc1cccc(NC(CC(N)=O)C(=O)Nc2nc3ccc4[nH]ncc4c3s2)c1 (stereo not shown) | 6.49
CCC(=O)Nc1cc(NC(C(=O)Nc2nc3c(C(F)(F)F)cc4[nH]ncc4c3s2)c2ccccc2)ccc1Cl (stereo not shown) | 6.43
CCC(=O)Nc1cc(NC(C)(C)C(=O)Nc2nc3c(C(F)(F)F)cc4[nH]ncc4c3s2)ccc1F | 6.53
CCOC(=O)c1cc(NC(C)(C)C(=O)Nc2nc3ccc4[nH]ncc4c3s2)ccc1Cl | 6.80
CC(C)(Nc1ccc(Cl)c(C(=O)NCCCC(=O)O)c1)C(=O)Nc1nc2c(C(F)(F)F)cc3[nH]ncc3c2s1 | 6.60
CCNC(=O)c1cc(NC(C)(C)C(=O)Nc2nc3c(C(F)(F)F)cc4[nH]ncc4c3s2)ccc1F | 6.97
O=C(CNc1cccc(Cl)c1)Nc1nc2ccc3[nH]ncc3c2s1 | 6.77
